- TARGET_OF_ASSAY: h5-HT transporter (Homo sapiens, UniProt P31645)
- Construct: Human platelet membranes (Oceanix Biosciences Corporation, Hanover, Md., USA) were thawed; tissue Oceanix Biosciences Corporation, Hanover, Md., USA; host or cells: human platelet membranes
- Sequence (P31645 whole entry): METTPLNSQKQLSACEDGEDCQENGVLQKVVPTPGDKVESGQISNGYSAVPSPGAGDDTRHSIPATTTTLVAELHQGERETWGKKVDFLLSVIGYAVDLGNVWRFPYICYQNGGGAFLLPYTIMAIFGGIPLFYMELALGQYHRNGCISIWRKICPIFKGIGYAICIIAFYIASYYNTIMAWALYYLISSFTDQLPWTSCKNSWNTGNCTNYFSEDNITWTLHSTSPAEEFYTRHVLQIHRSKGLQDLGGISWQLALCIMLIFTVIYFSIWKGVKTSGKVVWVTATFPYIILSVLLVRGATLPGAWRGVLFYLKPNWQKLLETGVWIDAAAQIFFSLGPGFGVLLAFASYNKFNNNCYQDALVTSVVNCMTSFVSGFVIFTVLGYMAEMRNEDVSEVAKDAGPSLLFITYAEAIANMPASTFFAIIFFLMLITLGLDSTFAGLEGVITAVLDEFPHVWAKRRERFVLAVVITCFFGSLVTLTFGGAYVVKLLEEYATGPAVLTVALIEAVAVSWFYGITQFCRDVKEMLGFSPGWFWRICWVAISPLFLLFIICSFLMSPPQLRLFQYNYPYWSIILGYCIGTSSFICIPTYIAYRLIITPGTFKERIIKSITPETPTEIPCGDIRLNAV
- PROTOCOL_SUMMARY: Radioligand binding experiment for 5-HT transporter ([3H]paroxetine, human platelet membranes)
- EXPERIMENTAL_CONDITIONS: human platelet membranes; [3H]paroxetine 0.5 nM; read-out: 5HTT pIC50 (converted)
log10 IC50 reference
Please keep in mind that the values are log10 of IC50 expressed in nM.

A selection of reference data follows.
COc1cc2c(cc1OC)C1=NOC(CN3CCN(C(C)/C=C/c4ccccc4)CC3)C1CO2 (single isomer, unassigned) : 2.61
COc1cc2c(cc1OC)C1=NOC(CN3CCN(Cc4cccc(Cl)c4)CC3)C1CO2 (centres unmarked) : 2.56
COc1cc2c(cc1OC)C1=NOC(CN3CCN(CC4=Cc5ccccc5OC4)CC3)C1CO2 (centres unmarked) : 0.71
COc1cc2c(cc1OC)C1=NOC(CN3CCN(Cc4ccc5c(N)cccc5c4)CC3)C1CO2 (centres unmarked) : 1.59
COc1cc2c(cc1OC)C1=NOC(CN3CCN(CC=Cc4cccc(C)c4)CC3)C1CO2 (centres unmarked) : 1.48

Query :: Looking for the measured log10 IC50 of COc1cc2c(cc1OC)C1=NOC(CN3CCN(C/C=C/c4ccsc4)CC3)C1CO2 (single isomer, unassigned) , can you help?
Result :: 0.94

Query :: And the next one, c1ccc2cc(CN3CCN(CC4ON=C5c6cc7c(cc6OCC54)OCO7)CC3)ccc2c1 (centres unmarked) ?
Result :: 2.03

Query :: And the next one, CCC(=Cc1ccccc1)CN1CCN(CC2ON=C3c4cc(OC)c(OC)cc4OCC32)CC1 (centres unmarked) ?
Result :: 1.95

====

- TARGET_OF_ASSAY: hα2C receptor (Homo sapiens)
- Construct: expressed in transfected cells
- Sequence (P18825 1-462): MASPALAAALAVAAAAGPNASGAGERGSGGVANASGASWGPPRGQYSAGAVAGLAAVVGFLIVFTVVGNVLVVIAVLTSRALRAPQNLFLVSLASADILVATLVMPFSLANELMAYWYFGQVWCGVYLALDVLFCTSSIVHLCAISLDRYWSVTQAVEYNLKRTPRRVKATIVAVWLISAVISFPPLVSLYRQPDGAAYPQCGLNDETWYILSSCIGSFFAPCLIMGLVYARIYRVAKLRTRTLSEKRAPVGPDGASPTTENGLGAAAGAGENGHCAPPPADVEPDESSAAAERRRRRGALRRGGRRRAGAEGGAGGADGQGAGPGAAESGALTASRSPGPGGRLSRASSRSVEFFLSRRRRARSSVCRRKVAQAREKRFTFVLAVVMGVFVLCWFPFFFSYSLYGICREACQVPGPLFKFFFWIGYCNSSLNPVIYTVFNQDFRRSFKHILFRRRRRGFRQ
- PROTOCOL_SUMMARY: Radioligand binding experiment for hα2C receptor ([3H]-raulwolscine)
- EXPERIMENTAL_CONDITIONS: hα2C pIC50, membranes of CHO cells expressing human α2C receptor; [3H]raulwolscine 1 nM
RECORDED_ENDPOINT: pIC50
To interpret pIC50, take it as minus log10 of a concentration measured in moles per litre.

CCNC(=O)Oc1ccc2c(c1)OCC1C2=NOC1CN1CCN(CC(C)=Cc2ccccc2)CC1 (centres unmarked) [Compound 238] : 8.59

Pending compound:
Query :: Looking for the measured pIC50 of CCNC(=O)Oc1cc2c(cc1OC)C1=NOC(CN3CCN(C/C(C)=C/c4ccccc4)CC3)C1CO2 (single isomer, unassigned) [Compound 340] , can you help?
Result :: 8.42

====

- TARGET_OF_ASSAY: hα2B receptor (Homo sapiens)
- Construct: expressed in transfected cells
- PROTOCOL_SUMMARY: Radioligand binding experiment for hα2B receptor ([3H]-raulwolscine)
- EXPERIMENTAL_CONDITIONS: membranes of CHO cells expressing human α2B receptor; [3H]raulwolscine 1 nM; read-out: hα2B pIC50 (converted)
- Experimental: The interaction of the compounds of Formula (I) with hα2-receptors and h5-HT-transporters was assessed in in vitro radioligand binding experiments. […] When equilibrium of binding is reached, the receptor bound radioactivity is separated from the non-bound radioactivity, and the receptor- or transporter-bound activity is counted. The interaction of the test compounds with the receptor is assessed in competition binding experiments. […]
RECORDED_ENDPOINT: IC50
Output should be the measured figure followed by the unit it is expressed in.

COc1cc2c(cc1OC)C1=NOC(CN3CCN(Cc4cccc(Cl)c4)CC3)C1CO2 (stereo not shown) [Compound 14] : 646 nM
COc1ccc2c(c1)OCC1C2=NOC1CN1CCN(CC=Cc2ccccc2)CC1 (stereo not shown) [Compound 217] : 6.17 nM
COc1cc2c(cc1OC)C1=NOC(CN3CCN(CC4=Cc5ccccc5CC4)CC3)C1CO2 (stereo not shown) [Compound 21] : 18.6 nM

Pending compound:
Query :: Looking for the measured IC50 of COc1cc2c(cc1OC)C1=NOC(CN3CCN(Cc4ccccc4)CC3)C1CO2 (stereo not shown) [Compound 31] , can you help?
Result :: 631 nM

====

- TARGET_OF_ASSAY: hα2B receptor (Homo sapiens, UniProt P18089)
- Construct: expressed in transfected cells
- Sequence (P18089 1-450): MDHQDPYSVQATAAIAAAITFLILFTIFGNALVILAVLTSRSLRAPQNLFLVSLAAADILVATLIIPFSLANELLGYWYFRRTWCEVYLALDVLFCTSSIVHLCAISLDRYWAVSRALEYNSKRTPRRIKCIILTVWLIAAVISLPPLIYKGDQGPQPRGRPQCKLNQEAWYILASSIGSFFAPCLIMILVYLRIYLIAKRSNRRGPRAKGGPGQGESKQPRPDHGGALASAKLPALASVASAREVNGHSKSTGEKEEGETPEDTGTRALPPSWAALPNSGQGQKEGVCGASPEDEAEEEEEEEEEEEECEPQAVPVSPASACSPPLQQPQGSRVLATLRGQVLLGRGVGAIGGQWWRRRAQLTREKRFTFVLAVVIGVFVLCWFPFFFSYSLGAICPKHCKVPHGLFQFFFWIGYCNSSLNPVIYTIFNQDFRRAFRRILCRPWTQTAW
- PROTOCOL_SUMMARY: Radioligand binding experiment for hα2B receptor ([3H]-raulwolscine)
- EXPERIMENTAL_CONDITIONS: hα2B pIC50, membranes of CHO cells expressing human α2B receptor; [3H]raulwolscine 1 nM
RECORDED_ENDPOINT: pIC50
To interpret pIC50, take it as minus log10 of a concentration measured in moles per litre.

Query :: Looking for the measured pIC50 of CCNC(=O)Oc1ccc2c(c1)OCC1C2=NOC1CN1CCN(CC(C)=Cc2ccccc2)CC1 (stereo not shown) , can you help?
Result :: 8.62

====

IC50 reference
- TARGET_OF_ASSAY: hα2A receptor (Homo sapiens, UniProt P08913)
- Construct: expressed in transfected cells
- Sequence (P08913 1-465): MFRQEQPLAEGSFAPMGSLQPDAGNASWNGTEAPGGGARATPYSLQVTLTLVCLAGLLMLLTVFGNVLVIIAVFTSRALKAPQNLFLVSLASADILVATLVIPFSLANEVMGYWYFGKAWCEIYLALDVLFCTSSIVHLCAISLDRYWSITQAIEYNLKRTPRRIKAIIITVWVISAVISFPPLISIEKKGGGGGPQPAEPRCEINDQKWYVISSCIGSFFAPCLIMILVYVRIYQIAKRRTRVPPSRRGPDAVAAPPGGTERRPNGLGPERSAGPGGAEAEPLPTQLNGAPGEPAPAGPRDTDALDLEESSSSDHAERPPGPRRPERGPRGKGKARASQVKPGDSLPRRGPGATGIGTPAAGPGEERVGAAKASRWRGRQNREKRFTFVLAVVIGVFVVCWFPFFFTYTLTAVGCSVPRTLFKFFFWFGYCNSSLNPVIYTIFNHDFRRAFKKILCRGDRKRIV
- PROTOCOL_SUMMARY: Radioligand binding experiment for hα2A receptor ([3H]-raulwolscine)
- EXPERIMENTAL_CONDITIONS: membranes of CHO cells expressing human α2A receptor; [3H]raulwolscine 1 nM; read-out: hα2A pIC50 (converted)
Report as a plain number; the unit nM is understood.

COc1cc2c(cc1OC)C1=NOC(CN3CCN(CC(Br)=Cc4ccccc4)CC3)C1CO2 (stereo not drawn) : 77.6
COc1cc2c(cc1OC)C1=NOC(CN3CCN(C/C=C/c4ccc(F)cc4F)CC3)C1CO2 (single isomer, unassigned) : 145
COc1cc2c(cc1OC)C1=NOC(CN3CCN(CCC(=O)c4ccccc4)CC3)C1CO2 (stereo not drawn) : 50.1
COc1cc2c(cc1OC(C)=O)OCC1C2=NOC1CN1CCN(Cc2ccc3ccccc3c2)CC1 (stereo not drawn) : 5.13
COc1ccc2c(c1)OCC1C2=NOC1CN1CCN(Cc2ccc3ccccc3c2)CC1 (stereo not drawn) : 3.47

Pending molecule:
Query :: Looking for the measured IC50 of COc1cc2c(cc1OC)C1=NOC(CN3CCN(Cc4cccc(Cl)c4)CC3)C1CO2 (stereo not drawn) , can you help?
Result :: 427
